Value source: the OPERA property sets (Mansouri et al. 2018)

The threshold is inclusive: melting point of exactly 100 °C counts as 1 (yes); values below receive 0 (no).

Is melting point at least 100 °C? Consider CC(N)CC(=O)O (stereo unspecified)
1 (yes)

Is melting point at least 100 °C? Consider Clc1cc2oc3c(Cl)c(Cl)c(Cl)cc3c2cc1Cl
1 (yes)

Is melting point at least 100 °C? Consider Clc1ccc(C(c2ccc(Cl)cc2)C(Cl)(Cl)Cl)cc1
1 (yes)

Is melting point at least 100 °C? Consider O=C(O)c1ccccc1C(=O)Nc1cccc2ccccc12
1 (yes)

Is melting point at least 100 °C? Consider Brc1cncc(Br)c1
1 (yes)
